- Test system: platelet aggregation induced by PAF
- protocol-details: Inhibition of platelet aggregation induced by PAF (rabbit platelet rich plasma, Born nephelometric technique)
- Type: cell-based, male New Zealand albino rabbits
- recorded-conditions: Oryctolagus cuniculus, rabbit PRP, 3×10^5 platelets/mm^3, PAF (C18) 15 nM
Consider the following compounds and their measured IC50 readings.
Dear colleague, please return just the value in nM, with no unit written.

Completed entries (count: 4):
>>> reported("Cc1ncccc1C(C#N)N1CCN(C(=O)CC(NC(=O)Cc2ccc(OCc3ccc4ccccc4n3)cc2)c2ccccc2)CC1 (centres unmarked) [Compound 3]")
80
>>> reported("Cc1ncccc1C(C#N)N1CCN(C(=O)CC(NC(=O)c2cccc(OCc3ccc4ccccc4n3)c2)c2ccccc2)CC1 (centres unmarked) [Compound 6]")
740
>>> reported("N#CC(c1cccnc1)C1CCN(C(=O)CC(NC(=O)c2ccc(OCc3ccc4ccccc4n3)cc2)c2ccccc2)CC1 (centres unmarked) [Compound 7]")
55
>>> reported("Cc1ncccc1C(C#N)N1CCN(C(=O)CC(NC(=O)Cc2cccc(OCc3ccc4ccccc4n3)c2)c2ccccc2)CC1 (centres unmarked) [Compound 4]")
12

Would you mind telling me what IC50 value was observed for Cc1ncccc1C(C#N)N1CCN(C(=O)Cc2ccc(OCc3ccc4ccccc4n3)cc2)CC1 (centres unmarked) [Compound 1] ?
6700
